# protocol-details: UV stability of compounds in toluene (absorbance decay, t80)
# Assay type: physicochemical
# test-conditions: UV LEDs 365 nm & 255 nm, 12 cm, time until absorbance decayed to 80% of initial value
Exercise: state measured Times t80 for each of the compounds provided.
Form entry: value (min) — number only.

// query Item CCCCCCCCc1ccc(-c2cc(OC)ccc2N(c2cc(F)c(F)c(F)c2)c2cc(N(c3cc(F)c(F)c(F)c3)c3ccc(OC)cc3-c3ccc(CCCCCCCC)cc3)c3ccc4c(N(c5cc(F)c(F)c(F)c5)c5ccc(OC)cc5-c5ccc(CCCCCCCC)cc5)cc(N(c5cc(F)c(F)c(F)c5)c5ccc(OC)cc5-c5ccc(CCCCCCCC)cc5)c5ccc2c3c54)cc1 [Compound 24] : provide Times t80
// result 352

// query Item CCc1cccc(CC)c1N(c1ccc(C(C)(C)C)cc1)c1cc(N(c2ccc(C(C)(C)C)cc2)c2c(CC)cccc2CC)c2ccc3c(N(c4ccc(C(C)(C)C)cc4)c4c(CC)cccc4CC)cc(N(c4ccc(C(C)(C)C)cc4)c4c(CC)cccc4CC)c4ccc1c2c43 [Compound 11] : provide Times t80
// result 257

// query Item Cc1cccc(C)c1N(c1cc(C(C)(C)C)cc(C(C)(C)C)c1)c1cc(N(c2cc(C(C)(C)C)cc(C(C)(C)C)c2)c2c(C)cccc2C)c2ccc3c(N(c4cc(C(C)(C)C)cc(C(C)(C)C)c4)c4c(C)cccc4C)cc(N(c4cc(C(C)(C)C)cc(C(C)(C)C)c4)c4c(C)cccc4C)c4ccc1c2c43 [Compound 7] : provide Times t80
// result 280

* * *

# protocol-details: Absorption and emission spectrum in spin-coated film
# Format: physicochemical
# test-conditions: film vs toluene solution
measured-metric: Red shift of the spectrum in the film relative to the solution

chemical-string	result
CCCCCCCCc1ccc(-c2cc(OC)ccc2N(c2cc(F)c(F)c(F)c2)c2cc(N(c3cc(F)c(F)c(F)c3)c3ccc(OC)cc3-c3ccc(CCCCCCCC)cc3)c3ccc4c(N(c5cc(F)c(F)c(F)c5)c5ccc(OC)cc5-c5ccc(CCCCCCCC)cc5)cc(N(c5cc(F)c(F)c(F)c5)c5ccc(OC)cc5-c5ccc(CCCCCCCC)cc5)c5ccc2c3c54)cc1	very small red shift
Fc1ccc(N(c2ccccc2)c2cc(N(c3ccccc3)c3ccc(F)cc3)c3ccc4c(N(c5ccccc5)c5ccc(F)cc5)cc(N(c5ccccc5)c5ccc(F)cc5)c5ccc2c3c54)cc1	large red shift
CC(C)(C)c1ccc(N(c2ccccc2)c2cc(N(c3ccccc3)c3ccc(C(C)(C)C)cc3)c3ccc4c(N(c5ccccc5)c5ccc(C(C)(C)C)cc5)cc(N(c5ccccc5)c5ccc(C(C)(C)C)cc5)c5ccc2c3c54)cc1	large red shift
Cc1cccc(C)c1N(c1cc(C(C)(C)C)cc(C(C)(C)C)c1)c1cc(N(c2cc(C(C)(C)C)cc(C(C)(C)C)c2)c2c(C)cccc2C)c2ccc3c(N(c4cc(C(C)(C)C)cc(C(C)(C)C)c4)c4c(C)cccc4C)cc(N(c4cc(C(C)(C)C)cc(C(C)(C)C)c4)c4c(C)cccc4C)c4ccc1c2c43	very small red shift
CCCCCCCCc1ccc(-c2cc(C(C)C)ccc2N(c2cc(F)c(F)c(F)c2)c2cc(N(c3cc(F)c(F)c(F)c3)c3ccc(C(C)C)cc3-c3ccc(CCCCCCCC)cc3)c3ccc4c(N(c5cc(F)c(F)c(F)c5)c5ccc(C(C)C)cc5-c5ccc(CCCCCCCC)cc5)cc(N(c5cc(F)c(F)c(F)c5)c5ccc(C(C)C)cc5-c5ccc(CCCCCCCC)cc5)c5ccc2c3c54)cc1	very small red shift
c1ccc(N(c2ccccc2)c2cc(N(c3ccccc3)c3ccccc3)c3ccc4c(N(c5ccccc5)c5ccccc5)cc(N(c5ccccc5)c5ccccc5)c5ccc2c3c54)cc1	large red shift
CCCCCCCCc1ccc(N(c2ccc(C(C)C)cc2-c2cc(F)c(F)c(F)c2)c2cc(N(c3ccc(CCCCCCCC)cc3)c3ccc(C(C)C)cc3-c3cc(F)c(F)c(F)c3)c3ccc4c(N(c5ccc(CCCCCCCC)cc5)c5ccc(C(C)C)cc5-c5cc(F)c(F)c(F)c5)cc(N(c5ccc(CCCCCCCC)cc5)c5ccc(C(C)C)cc5-c5cc(F)c(F)c(F)c5)c5ccc2c3c54)cc1	very small red shift
Cc1cccc(C)c1N(c1ccc(C(C)(C)C)cc1)c1cc(N(c2ccc(C(C)(C)C)cc2)c2c(C)cccc2C)c2ccc3c(N(c4ccc(C(C)(C)C)cc4)c4c(C)cccc4C)cc(N(c4ccc(C(C)(C)C)cc4)c4c(C)cccc4C)c4ccc1c2c43	very small red shift

// query Item Fc1cccc(F)c1N(c1ccccc1)c1cc(N(c2ccccc2)c2c(F)cccc2F)c2ccc3c(N(c4ccccc4)c4c(F)cccc4F)cc(N(c4ccccc4)c4c(F)cccc4F)c4ccc1c2c43 : provide Red shift of the spectrum in the film relative to the solution
// result large red shift

* * *

Exercise: state measured Emission peak of the toluene solution for each of the compounds provided.
# protocol-details: Absorption spectrum, emission spectrum and extinction coefficient in toluene solution
# Type: physicochemical
Form entry: value (nm) — number only.

// query Item CC(C)(C)c1ccc2c(c1)B1c3c(c4c5c(c3-n3c6ccc(C(C)(C)C)cc6c6cc(C(C)(C)C)cc1c63)Oc1ccc(C(C)(C)C)cc1B5c1cc(C(C)(C)C)cc3c5cc(C(C)(C)C)ccc5n-4c13)O2 [Compound E4, reference compound] : provide Emission peak of the toluene solution
// result 613

// query Item Fc1cccc(F)c1N(c1ccccc1)c1cc(N(c2ccccc2)c2c(F)cccc2F)c2ccc3c(N(c4ccccc4)c4c(F)cccc4F)cc(N(c4ccccc4)c4c(F)cccc4F)c4ccc1c2c43 : provide Emission peak of the toluene solution
// result 462

* * *

Exercise: state measured Absorption peak of the toluene solution for each of the compounds provided.
# protocol-details: Absorption spectrum, emission spectrum and extinction coefficient in toluene solution
# Assay type: physicochemical
# Experimental: The extinction coefficients of the compounds and their absorption and emission spectrums in the solution were determined as follows: • 1. […] The absorption spectrum of the solution was measured by using an ultraviolet-visible spectrophotometer (Puxi T9s) to obtain the absorption peak wavelength. • 3. The absorbance of the maximum absorption peak divided by the amount of substance concentration is the molar extinction coefficient of the compound. • 4. […]
Form entry: value (nm) — number only.

// query Item Fc1ccc(N(c2ccccc2)c2cc(N(c3ccccc3)c3ccc(F)cc3)c3ccc4c(N(c5ccccc5)c5ccc(F)cc5)cc(N(c5ccccc5)c5ccc(F)cc5)c5ccc2c3c54)cc1 [Compound 16] : provide Absorption peak of the toluene solution
// result 466

// query Item c1ccc(N(c2ccccc2)c2cc(N(c3ccccc3)c3ccccc3)c3ccc4c(N(c5ccccc5)c5ccccc5)cc(N(c5ccccc5)c5ccccc5)c5ccc2c3c54)cc1 [Compound 20] : provide Absorption peak of the toluene solution
// result 465

// query Item Fc1cccc(F)c1N(c1ccccc1)c1cc(N(c2ccccc2)c2c(F)cccc2F)c2ccc3c(N(c4ccccc4)c4c(F)cccc4F)cc(N(c4ccccc4)c4c(F)cccc4F)c4ccc1c2c43 [Compound 17] : provide Absorption peak of the toluene solution
// result 439

// query Item CC(C)(C)c1ccc(N(c2ccccc2)c2cc(N(c3ccccc3)c3ccc(C(C)(C)C)cc3)c3ccc4c(N(c5ccccc5)c5ccc(C(C)(C)C)cc5)cc(N(c5ccccc5)c5ccc(C(C)(C)C)cc5)c5ccc2c3c54)cc1 [Compound 21] : provide Absorption peak of the toluene solution
// result 469

// query Item CC(C)(C)c1ccc2c(c1)B1c3c(c4c5c(c3-n3c6ccc(C(C)(C)C)cc6c6cc(C(C)(C)C)cc1c63)Oc1ccc(C(C)(C)C)cc1B5c1cc(C(C)(C)C)cc3c5cc(C(C)(C)C)ccc5n-4c13)O2 [Compound E4, reference compound] : provide Absorption peak of the toluene solution
// result 589

* * *

Exercise: state measured Times t80 for each of the compounds provided.
# protocol-details: UV stability of compounds in toluene (absorbance decay, t80)
# Type: physicochemical
# test-conditions: UV LEDs 365 nm & 255 nm, 12 cm, time until absorbance decayed to 80% of initial value
Form entry: value (min) — number only.

// query Item Fc1ccc(N(c2ccccc2)c2cc(N(c3ccccc3)c3ccc(F)cc3)c3ccc4c(N(c5ccccc5)c5ccc(F)cc5)cc(N(c5ccccc5)c5ccc(F)cc5)c5ccc2c3c54)cc1 [Compound 16] : provide Times t80
// result 227

// query Item Cc1cccc(C)c1N(c1ccc(C(C)(C)C)cc1)c1cc(N(c2ccc(C(C)(C)C)cc2)c2c(C)cccc2C)c2ccc3c(N(c4ccc(C(C)(C)C)cc4)c4c(C)cccc4C)cc(N(c4ccc(C(C)(C)C)cc4)c4c(C)cccc4C)c4ccc1c2c43 [Compound 4] : provide Times t80
// result 195

// query Item CCCCCCCCc1ccc(-c2cc(C(C)C)ccc2N(c2cc(F)c(F)c(F)c2)c2cc(N(c3cc(F)c(F)c(F)c3)c3ccc(C(C)C)cc3-c3ccc(CCCCCCCC)cc3)c3ccc4c(N(c5cc(F)c(F)c(F)c5)c5ccc(C(C)C)cc5-c5ccc(CCCCCCCC)cc5)cc(N(c5cc(F)c(F)c(F)c5)c5ccc(C(C)C)cc5-c5ccc(CCCCCCCC)cc5)c5ccc2c3c54)cc1 [Compound 22] : provide Times t80
// result 377

// query Item CCCCCCCCc1ccc(N(c2ccc(C(C)C)cc2-c2cc(F)c(F)c(F)c2)c2cc(N(c3ccc(CCCCCCCC)cc3)c3ccc(C(C)C)cc3-c3cc(F)c(F)c(F)c3)c3ccc4c(N(c5ccc(CCCCCCCC)cc5)c5ccc(C(C)C)cc5-c5cc(F)c(F)c(F)c5)cc(N(c5ccc(CCCCCCCC)cc5)c5ccc(C(C)C)cc5-c5cc(F)c(F)c(F)c5)c5ccc2c3c54)cc1 [Compound 26] : provide Times t80
// result 486

// query Item CC1CCC(C(C)C)C(Oc2ccc(-c3cc(C(C)C)ccc3N(c3cc(F)c(F)c(F)c3)c3cc(N(c4cc(F)c(F)c(F)c4)c4ccc(C(C)C)cc4-c4ccc(OC5CC(C)CCC5C(C)C)cc4)c4ccc5c(N(c6cc(F)c(F)c(F)c6)c6ccc(C(C)C)cc6-c6ccc(OC7CC(C)CCC7C(C)C)cc6)cc(N(c6cc(F)c(F)c(F)c6)c6ccc(C(C)C)cc6-c6ccc(OC7CC(C)CCC7C(C)C)cc6)c6ccc3c4c65)cc2)C1 (stereo not drawn) [Compound 23] : provide Times t80
// result 405

// query Item c1ccc(N(c2ccccc2)c2cc(N(c3ccccc3)c3ccccc3)c3ccc4c(N(c5ccccc5)c5ccccc5)cc(N(c5ccccc5)c5ccccc5)c5ccc2c3c54)cc1 [Compound 20] : provide Times t80
// result 188

These entries and their values trace back to patent US20250280696A1.
